- Tested on: Mycobacterium tuberculosis
- ASSAY_METHOD_TEXT: Inhibition of Mycobacterium tuberculosis LdtMt1 expressed in Escherichia coli assessed as efficiency of acylation reaction by measuring ratio of K2 to Kapp by stopped-flow spectrofluorimetric method
REPORTED_PROPERTY: Ratio (M⁻¹ s⁻¹)
Numbers only here, please. The scale is M⁻¹ s⁻¹.

Ratio recorded for this compound, C[C@@H](O)[C@H]1C(=O)N2C(C(=O)O)=C(SCCN)[C@H](C)[C@H]12 , is 3600

Ratio recorded for this compound, C[C@@H](O)[C@H]1C(=O)N2C(C(=O)O)=C(S[C@@H]3CN[C@H](C(=O)N(C)C)C3)[C@H](C)[C@H]12 , is 1300

Ratio recorded for this compound, C[C@@H](O)[C@H]1C(=O)N2C(C(=O)O)=C(SCCc3cn(-c4cccc(C(=O)O)c4)nn3)[C@H](C)[C@H]12 , is 36000

Ratio recorded for this compound, C[C@@H](O)[C@H]1C(=O)N2C(C(=O)O)=C(S[C@@H]3CN[C@H](CNS(N)(=O)=O)C3)[C@H](C)[C@H]12 , is 1500

Ratio recorded for this compound, CCSC1=C(C(=O)O)N2C(=O)[C@H]([C@@H](C)O)[C@H]2[C@H]1C , is 10800

Ratio recorded for this compound, C[C@@H](O)[C@H]1C(=O)N2C(C(=O)O)=C(SCCc3cn(CCCCC(=O)O)nn3)[C@H](C)[C@H]12 , is 9600

Ratio recorded for this compound, C[C@@H](O)[C@H]1C(=O)N2C(C(=O)O)=C(SCCc3cn(CCc4c[nH]c5ccccc45)nn3)[C@H](C)[C@H]12 , is 28000

Ratio recorded for this compound, CCSC1=C(C(=O)O)N2C(=O)[C@H]([C@@H](C)OC(=O)c3c(F)c(F)c(F)c(F)c3F)[C@H]2[C@H]1C , is 25000

Ratio recorded for this compound, C[C@@H](O)[C@H]1C(=O)N2C(C(=O)O)=C(SCCc3cn(-c4ccccc4)nn3)[C@H](C)[C@H]12 , is 26000

Ratio recorded for this compound, CC(c1ccc(C(=O)O)cc1)n1cc(CCSC2=C(C(=O)O)N3C(=O)[C@H]([C@@H](C)O)[C@H]3[C@H]2C)nn1 (some centres undefined) , is 29000

Ratio recorded for this compound, C[C@@H](O)[C@H]1C(=O)N2C(C(=O)O)=C(S[C@@H]3CN[C@H](C(=O)Nc4cccc(C(=O)O)c4)C3)[C@H](C)[C@H]12 , is 23000

Ratio recorded for this compound, C[C@@H](O)[C@H]1C(=O)N2C(C(=O)O)=C(SCCc3cn(-c4ccccc4C(=O)O)nn3)[C@H](C)[C@H]12 , is 26000

Ratio recorded for this compound, CCSC1=C(C(=O)O)N2C(=O)[C@H]([C@@H](C)OC(=O)c3ccccc3)[C@H]2[C@H]1C , is 3800

Ratio recorded for this compound, C[C@@H](O)[C@H]1C(=O)N2C(C(=O)O)=C(SCCc3ccccc3)[C@H](C)[C@H]12 , is 39000

* * *

- System: Mycobacterium tuberculosis
- ASSAY_METHOD_TEXT: Activity at Mycobacterium tuberculosis beta lactamase BlaC expressed in Escherichia coli assessed as ratio of Kcat to Km by spectrophotometric method
REPORTED_PROPERTY: kcat/Km (M⁻¹ s⁻¹)
Numbers only here, please. The scale is M⁻¹ s⁻¹.

kcat/Km recorded for this compound, C[C@@H](O)[C@H]1C(=O)N2C(C(=O)O)=C(SCCc3cn(CCCCC(=O)O)nn3)[C@H](C)[C@H]12 , is 5700

kcat/Km recorded for this compound, C[C@@H](O)[C@H]1C(=O)N2C(C(=O)O)=C(SCCc3cn(-c4cccc(C(=O)O)c4)nn3)[C@H](C)[C@H]12 , is 13000

kcat/Km recorded for this compound, C[C@@H](O)[C@H]1C(=O)N2C(C(=O)O)=C(S[C@@H]3CN[C@H](C(=O)Nc4cccc(C(=O)O)c4)C3)[C@H](C)[C@H]12 , is 330

kcat/Km recorded for this compound, C[C@@H](O)[C@H]1C(=O)N2C(C(=O)O)=C(SCCN)[C@H](C)[C@H]12 , is 320

kcat/Km recorded for this compound, C[C@@H](O)[C@H]1C(=O)N2C(C(=O)O)=C(SCCc3cn(CCc4c[nH]c5ccccc45)nn3)[C@H](C)[C@H]12 , is 2000

kcat/Km recorded for this compound, CCSC1=C(C(=O)O)N2C(=O)[C@H]([C@@H](C)OC(=O)c3ccccc3)[C@H]2[C@H]1C , is 1500

kcat/Km recorded for this compound, CC(c1ccc(C(=O)O)cc1)n1cc(CCSC2=C(C(=O)O)N3C(=O)[C@H]([C@@H](C)O)[C@H]3[C@H]2C)nn1 (some centres not stated) , is 3200
